# test name: A CellTox Green Cytotoxicity Assay to monitor cytotoxicity in HEK293 cells - 32 hour (AID 1224881); further: nearly all actives have a fitted effect of over 40% in size; further: potency means the concentration at half of the fitted maximal effect
# test parameters: CellTox Green fluorescence; series mostly up to 76.8 µM
Results filed as inconclusive are left out. Active and inactive are the calls of the source. The call rests on the fitted dose curve; in most records, active means well fitted activation curve with a large enough effect in the repeat runs; inconclusive means weak or mixed curves; inactive means flat fitted curve, though single readings scatter.

| compound | Potency |
| --- | --- |
| C[C@]12CCC(=O)C=C1CC[C@@H]1[C@@H]2[C@@H](O)C[C@@]2(C)[C@H]1CC[C@]2(O)C(=O)COC(=O)CCC(=O)O | inactive |
| CC1=C(C(=O)OC(C)C)C(c2cccc([N+](=O)[O-])c2)C(C(=O)OC2CN(C(c3ccccc3)c3ccccc3)C2)=C(N)N1 (centres undefined) | inactive |
| Cc1ccc(-n2nc(C(C)(C)C)cc2NC(=O)Nc2ccc(OCCN3CCOCC3)c3ccccc23)cc1 | inactive |
| CC[C@@]1(O)C(=O)OCc2c1cc1n(c2=O)Cc2cc3c(CN(C)C)c(O)ccc3nc2-1 | 23.9 µM (active) |

---

# test name: qHTS assay to identify small molecule agonists of the vitamin D receptor (VDR) signaling pathway - cell viability counter screen (AID 743224); further: nearly all actives have a fitted effect of over 50% in size
# test parameters: VDR-bla HEK293T viability, CellTiter-Glo luminescence, 16 h; series mostly up to 62.6 µM
Results filed as inconclusive are left out. Active and inactive are the calls of the source. Calls follow the shape of the dose curve; as a rule, active = well fitted cell-killing curve with a large enough effect in the repeat runs; inconclusive = weak or mixed curves, or effect the other way; inactive = no such curve, though single readings can be large or run the other way.
Labels: y (active), n (inactive)

| compound | class name |
| --- | --- |
| NNC(=O)c1cccc(C(=O)NN)c1 | n |
| CC(=O)OCC(C)OC(C)=O (configuration not stated) | n |
| CCCCCCCCCCCCCC[P+](CCCC)(CCCC)CCCC (tested in a mixture with another compound) | n |
| O=C1C=CC(=O)N1c1ccc(Cc2ccc(N3C(=O)C=CC3=O)cc2)cc1 | y |
| Nc1c(Cl)cc(Cl)cc1Cl | n |
| OC1(c2ccc(Cl)c(C(F)(F)F)c2)CCN(CCCC(c2ccc(F)cc2)c2ccc(F)cc2)CC1 | y |
| Clc1ccc2nsnc2c1NC1=NCCN1 | n |
| CCN(CCC#N)c1ccc(N=Nc2c(Cl)cc([N+](=O)[O-])cc2Cl)cc1 | n |
| CCC(Cl)C(Cl)C(Cl)CC(Cl)C(Cl)C(C)Cl (configuration not stated) | y |
| Nc1ccccc1O | n |
| CCCC(C)c1ccccc1O (configuration not stated) | n |
| O=c1cc(-c2ccc(O)cc2)oc2cc(O)cc(O)c12 | n |
| CCc1cc(Cc2cc(CC)cc(C(C)(C)C)c2O)c(O)c(C(C)(C)C)c1 | y |
| On1ccccc1=S | y |
| N/C(=N\N=C\c1ccc(Cl)cc1)N/N=C/c1ccc(Cl)cc1 | y |
| Cc1[nH]nc2c1N=C(c1ccccc1Cl)c1cc([N+](=O)[O-])ccc1N2 | y |
| C[C@H]1[C@H]2CC[C@H]3[C@@H]4CC=C5C[C@@H](N(C)C)CC[C@]5(C)[C@H]4CC[C@]23CN1C | n |

---

# test name: qHTS assay to identify small molecule antagonists of the retinoid acid receptor (RAR) signaling pathway - cell viability counter screen (AID 1159551); further: nearly all actives have a fitted effect of over 35% in size
# test parameters: C3RL4 cells viability, ATP luminescence (CellTiter-Glo), 6 h; series mostly up to 92.4 µM
# Protocol: U.S. Tox21 Program National Center for Advancing Translational Sciences [NCATS] NIH Chemical Genomics Center [NCGC] U.S. Environmental Protection Agency [EPA] National Institutes of Environmental Health Sciences [NIEHS] National Toxicology Program [NTP] U.S. Food and Drug Administration [FDA] […] Also cytotoxicity was assessed by determining the viability of cells based on the quantitation of ATP. […]
Records with an inconclusive call do not appear. The source made the active and inactive calls. The call rests on the fitted dose curve; in most records, active means well fitted cell-killing curve with a large enough effect in the repeat runs; inconclusive means weak or mixed curves, or effect the other way; inactive means flat fitted curve, though single readings scatter.
Outcomes: yes = active, no = inactive

| compound | class name |
| --- | --- |
| O=C(Nc1cccc(Cl)c1)OCC#CCCl | no |
| COc1ccc(-c2ccc3cc(C(=O)O)ccc3c2)cc1C12CC3CC(CC(C3)C1)C2 | no |
| CCC(C)Nc1ccc(NC(C)CC)cc1 (stereo unspecified) | yes |
| CCC(C)(C)C1CCCCC1OC(C)=O (stereo unspecified) | no |
| CCCCN(CCCC)C(=O)N(CCCC)CCCC | no |
| NC(=O)NS(=O)(=O)c1ccc(N)cc1 | no |
